The reported numbers originate from patent US20130137631A1.

tgt: T1, human GIP receptor (human), P48546
T1 chain: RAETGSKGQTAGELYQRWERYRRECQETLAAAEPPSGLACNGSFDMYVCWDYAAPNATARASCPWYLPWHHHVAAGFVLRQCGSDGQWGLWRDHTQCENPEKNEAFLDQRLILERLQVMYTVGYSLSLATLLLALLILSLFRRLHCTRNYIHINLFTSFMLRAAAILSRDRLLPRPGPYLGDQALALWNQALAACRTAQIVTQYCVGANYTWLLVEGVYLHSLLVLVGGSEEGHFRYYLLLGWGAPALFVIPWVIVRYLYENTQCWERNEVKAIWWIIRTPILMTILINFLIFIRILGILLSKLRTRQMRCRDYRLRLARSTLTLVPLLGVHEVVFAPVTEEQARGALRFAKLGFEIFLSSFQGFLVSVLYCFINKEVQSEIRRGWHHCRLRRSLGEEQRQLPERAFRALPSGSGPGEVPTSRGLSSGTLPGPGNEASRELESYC
method-description: 125I-GIP displacement, HEK-GIPR membranes
% Inh 10 nM strictly less than 90% = true (1). Otherwise false (0).

Answered examples (4):
binder	discrete-label
YAEGTFISDYSIAMDKIHQQDFVNWLLAQKPKKARYS (modifications not checked) [0601GIP4856]	true (1)
YAEGTFISDYSIALEKIRQQEFVNWLLAQKPSSGAPPNSK (modifications not checked) [0601GIP5098]	false (0)
HAEGTFISDYSIAMDKIHQQDFVNWLLAQKPKKIRYS (modifications not checked) [0601GIP4838]	true (1)
YAEGTFISDYSIAMDKIHQQDFVQWLLAQKPKKIRYS (modifications not checked) [0601GIP4865 (row r89, Gln24)]	true (1)

[Q] Determine if YAEGTFISDYSIALDKIAQQEFVNWLLAQKPSSGAPPKSK (modifications not checked) [0601GIP5097] shows % Inh 10 nM strictly lower than 90%.
[A] false (0)

[Q] Determine if YAEGTFISDYSIAMDKIHQQDFVNWLLAQKPQQIRYS (modifications not checked) [0601GIP4855] shows % Inh 10 nM strictly lower than 90%.
[A] true (1)
